- Protocol Details: Resistance index, ratio of IC50 for human K562/A02 cells to IC50 for human K562 cells
- Format: functional
- Design: reference not given here
For each entry below, report its Ratio IC50 value.

Field Ratio IC50 (entry Cc1ccccc1/C(=N/NC(=S)NCCCCCC(=O)NO)c1ccccc1 ) reads 1.2

Field Ratio IC50 (entry O=C(CCCCCNC(=S)N/N=C(\c1ccccc1)c1ccc([N+](=O)[O-])cc1)NO ) reads 1.57

Field Ratio IC50 (entry COc1ccccc1/C(=N/NC(=S)NCCCCCC(=O)NO)c1ccccc1 ) reads 0.82

Field Ratio IC50 (entry C/C(=N\NC(=S)NCCCCCC(=O)NO)c1cccc(Br)c1 ) reads 0.41

Field Ratio IC50 (entry O=C(CCCCCNC(=S)N/N=C(\c1ccccc1)c1ccccc1F)NO ) reads 1.3

###

- Protocol Details: Resistance index, ratio of IC50 for human K562/A02 cells to IC50 for human K562 cells
- Type: functional
- Set-up: reference not given here
Binary call on Ratio IC50 with cut-off 0.6: strictly below means rule met, and equality or higher means rule not met.

Query: Does this molecule meet the criterion Ratio IC50 < 0.6? Cc1ccc(NC(=O)c2ccc(CN3CCN(C)CC3)cc2)cc1Nc1nccc(-c2cccnc2)n1
Result: rule not met

Query: Does this molecule meet the criterion Ratio IC50 < 0.6? O=C(CCCCCNC(=S)N/N=C(\c1ccccc1)c1cccc([N+](=O)[O-])c1)NO
Result: rule met

Query: Does this molecule meet the criterion Ratio IC50 < 0.6? C/C(=N\NC(=S)NCCCCCC(=O)NO)c1cccc(C(F)(F)F)c1
Result: rule not met

Query: Does this molecule meet the criterion Ratio IC50 < 0.6? C/C(=N\NC(=S)NCCCCCC(=O)NO)c1cccc(C)c1
Result: rule not met

Query: Does this molecule meet the criterion Ratio IC50 < 0.6? C/C(=N\NC(=S)NCCCCCC(=O)NO)c1ccc(F)cc1
Result: rule met

Query: Does this molecule meet the criterion Ratio IC50 < 0.6? O=C(CCCCCNC(=S)N/N=C(\c1ccccc1)c1ccccc1[N+](=O)[O-])NO
Result: rule met

Query: Does this molecule meet the criterion Ratio IC50 < 0.6? COc1cccc(/C(C)=N/NC(=S)NCCCCCC(=O)NO)c1
Result: rule not met

Query: Does this molecule meet the criterion Ratio IC50 < 0.6? CN(C)C(=S)NN=C(c1ccccn1)c1ccccn1
Result: rule not met

Query: Does this molecule meet the criterion Ratio IC50 < 0.6? C/C(=N\NC(=S)NCCCCCC(=O)NO)c1ccc(Br)cc1
Result: rule met

Query: Does this molecule meet the criterion Ratio IC50 < 0.6? O=C(CCCCCNC(=S)N/N=C(\c1ccccc1)c1ccccn1)NO
Result: rule not met
